All values here come from paper PMC7782499.

# methodDescription: In vivo pharmacokinetic (PK) analysis, intravenous and oral
# Parameters: species or system rats
# testSettings: rat, blood; oral 5mg/kg (n=3); read-out: AUCall, Mean
propertyName: AUC (ng·h/mL)
Output spec: scalar in ng·h/mL, unitless text.

### Prompt May I ask what AUC has been recorded for CC1(C)Oc2cc3oc(=O)ccc3cc2C[C@@H]1OC/C=C/c1ccccc1 ?
### Response 144

---

# methodDescription: In vivo pharmacokinetic (PK) analysis, intravenous and oral
# Set-up: species or system rats
# testSettings: rat, blood; oral 5mg/kg (n=3)
propertyName: Tmax
Kindly format the answer as number then unit.

### Prompt May I ask what Tmax has been recorded for CC1(C)Oc2cc3oc(=O)ccc3cc2C[C@@H]1OC/C=C/c1ccccc1 [SLC-D011] ?
### Response 2.7 h

---

# methodDescription: Plasma stability, rat
# Type: in vitro ADME
# testSettings: 30min
propertyName: remaining at 0.5 h
Kindly format the answer as number then unit.

### Prompt May I ask what remaining at 0.5 h has been recorded for CC1(C)Oc2cc3oc(=O)ccc3cc2C[C@@H]1OC/C=C/c1ccccc1 ?
### Response 83.6%

---

# methodDescription: Plasma protein binding, rat
# Assay type: in vitro ADME
propertyName: fraction unbound
I only need the number, thanks.

[[record]]
mol = "CC1(C)Oc2cc3oc(=O)ccc3cc2C[C@@H]1OC/C=C/c1ccccc1"
valuemeasured = 0.002


Please find the next molecule below.
### Prompt May I ask what fraction unbound has been recorded for C[C@@H]1C[C@H]2[C@@H]3CCC4=CC(=O)C=C[C@]4(C)[C@@]3(F)[C@@H](O)C[C@]2(C)[C@@]1(O)C(=O)CO ?
### Response 0.156

---

Measured fraction unbound, listed per entry for reference.
# methodDescription: Plasma protein binding, human
# Type: in vitro ADME
# testSettings: human, plasma
I only need the number, thanks.

[[record]]
compound = "C[C@@H]1C[C@H]2[C@@H]3CCC4=CC(=O)C=C[C@]4(C)[C@@]3(F)[C@@H](O)C[C@]2(C)[C@@]1(O)C(=O)CO [Dexamethasone]"
propertyname = "fraction unbound"
valuemeasured = 0.345


Please find the next compound below.
### Prompt May I ask what fraction unbound has been recorded for CC1(C)Oc2cc3oc(=O)ccc3cc2C[C@@H]1OC/C=C/c1ccccc1 [SLC-D011] ?
### Response 0.001

---

# methodDescription: Plasma stability, rat
# Assay type: in vitro ADME
# testSettings: 120min
propertyName: remaining at 2 h
Kindly format the answer as number then unit.

### Prompt May I ask what remaining at 2 h has been recorded for CC1(C)Oc2cc3oc(=O)ccc3cc2C[C@@H]1OC/C=C/c1ccccc1 ?
### Response 75.1%

---

# methodDescription: Liver microsomal stability, rat
# Assay type: in vitro ADME
# testSettings: liver microsomes, read-out: Liver microsomal stability (% remaining during 30min)
propertyName: remaining at 0.5 h
Kindly format the answer as number then unit.

### Prompt May I ask what remaining at 0.5 h has been recorded for CC1(C)Oc2cc3oc(=O)ccc3cc2C[C@@H]1OC/C=C/c1ccccc1 [SLC-D011] ?
### Response 17.4%

---

# methodDescription: Plasma stability, human
# Assay type: in vitro ADME
# testSettings: 30min
propertyName: remaining at 0.5 h

### Prompt May I ask what remaining at 0.5 h has been recorded for CC1(C)Oc2cc3oc(=O)ccc3cc2C[C@@H]1OC/C=C/c1ccccc1 [SLC-D011] ?
### Response > 100%

---

# methodDescription: In vivo pharmacokinetic (PK) analysis, intravenous and oral
# Design: species or system rats
# testSettings: rat, blood; oral 5 mg/kg; read-out: Bioavailability (BA)
propertyName: bioavailability (%)
Output spec: scalar in %, unitless text.

### Prompt May I ask what bioavailability has been recorded for CC1(C)Oc2cc3oc(=O)ccc3cc2C[C@@H]1OC/C=C/c1ccccc1 ?
### Response 65.9

---

# methodDescription: Maximum tolerated dose study in Beagle dogs, escalated-dose oral administration
# Assay type: in vivo
# testSettings: both sexes, beagle, dog, in vivo; oral gavage, dose escalation
# Description: The protocol and procedures involving the care and use of animals in this study was reviewed and approved by IACUC of QuBEST BIO prior to conduct (Approval no.: QBSIACUC-A18142). […] Each animal was observed twice daily (a.m. and p.m.) for mortality and moribundity; findings were recorded as they were observed. Cage side observations were made for each animal once daily; abnormal findings were recorded. […] Body weights were measured prior to each dosing. […] Body weights were measured prior to each dosing. […]
propertyName: MTD

### Prompt May I ask what MTD has been recorded for CC1(C)Oc2cc3oc(=O)ccc3cc2C[C@@H]1OC/C=C/c1ccccc1 ?
### Response > 400 mg/kg

---

# methodDescription: In vivo pharmacokinetic (PK) analysis, intravenous and oral
# Set-up: species or system rats
# testSettings: rat, blood; oral 5mg/kg (n=3)
propertyName: Cmax
Kindly format the answer as number then unit.

### Prompt May I ask what Cmax has been recorded for CC1(C)Oc2cc3oc(=O)ccc3cc2C[C@@H]1OC/C=C/c1ccccc1 ?
### Response 29.7 ng/mL

---

# methodDescription: Plasma stability, human
# Format: in vitro ADME
# testSettings: 120min
propertyName: remaining at 2 h

### Prompt May I ask what remaining at 2 h has been recorded for CC1(C)Oc2cc3oc(=O)ccc3cc2C[C@@H]1OC/C=C/c1ccccc1 ?
### Response > 100%
